Recorded values, source paper PMC12429564.

# STUDY_SYSTEM: EGFR* (recombinant extracellular domain of human EGFR) (human, UniProt P00533 25-645)
# EXPERIMENT_DESCRIPTION: BLI; kon 3.7e5 M-1 s-1; koff 40e-4 s-1; BLI buffer and temperature not in the material; aptamers folded at 1 uM in PBS with 5 mM MgCl2 (95 C 5 min, slow cooling); ACCO assembled in PBS + 5 mM MgCl2 or Tris-HCl pH 7.4, 50 mM NaCl, 10 mM KCl, 5 mM MgCl2
# CONDITION_INFO: protein: recombinant; 18 bp duplex of S5 with 3' end of S3; GR20 part imperfect hairpin (predicted)
RECORDED_METRIC: Kd (nM)
Just the number in nM, nothing appended.

Record summary for ACCO GR20hh' (mixed) DNA 1: ACGCACCATTTGTTTAATATGTTTTTTAATTCCCCTTGTGGTGTGTTTCATTTAGGACCAACACAA DNA 2: TTGTGTTGGTCCTAAATG : reported Kd = 10.8
